Sourced from patent US8802664B2

Counter-ions that a name gives are not always drawn.
test-readout: melting point (°C)

Some solved entries appear below for comparison.
                                   compound  result_number
0  CCOC(=O)NCCCCC#Cc1cccc(C(OC2CCN(C)CC2)c2nc3ccccc3n2C)c1 (stereo not shown) (as salt: oxalate)             90
1  CN1CCC(NC(c2cccc(SCc3ccccc3)c2)c2nc3ccccc3[nH]2)CC1 (stereo not shown) (as salt: oxalate)            127
2  CN1CCC(OC(c2cccc(OC3CCC(N)CC3)c2)c2nc3ccccc3s2)CC1 (stereo not shown) (as salt: oxalate)             95
3  Cc1ccc(C(OC2CCN(C)CC2)c2nc3ccccc3[nH]2)c(C)c1 (stereo not shown)            120
4  CCOc1ccc(O)c(C(OC2CCN(C)CC2)c2nc3ccccc3[nH]2)c1 (stereo not shown)            213

P. CN1CCC(OC(c2cccc(OC(F)(F)F)c2)c2nc3ccccc3[nH]2)CC1 (stereo not shown) (as salt: oxalate)
Q. CN1CCC(OC(c2cccc(C#CCCCCN)c2)c2nc3ccccc3n2C)CC1 (stereo not shown) (as salt: oxalate)
query: Compare P and Q by numeric melting point and name the larger one. Indicate your choice by writing its label.
result: P
(P: 172 °C, Q: 113 °C)

* * *

Where a name gives a salt, the structure may show the parent alone.
test-readout: melting point (°C)

Some solved entries appear below for comparison.
>>> df
                                   compound   test_readout  result_number
0  CN1CCC(OC(c2cccc(Br)c2)c2nc3cc(F)c(F)cc3[nH]2)CC1 (centres unmarked)  melting point             70
1  CN1CCC(OC(c2cccc(OCCCCO)c2)c2nc3ccccc3s2)CC1 (centres unmarked) (as salt: oxalate)  melting point             63

a. CN1CCC(OC(c2cccc(OCC3CCCN(C)C3)c2)c2nc3ccccc3s2)CC1 (centres unmarked) (as salt: oxalate)
b. CN1CC=C(SC(c2cccc(Br)c2)c2nc3ccccc3[nH]2)CC1 (centres unmarked)
query: Hey, which is lower on measured melting point, a or b ? Indicate your choice by writing its label.
result: a
(a: 76 °C, b: 189 °C)

* * *

Biological target: human H4 receptor (Homo sapiens, UniProt Q9H3N8)
Construct: expressed in transfected cells
Test: [3H]Histamine binding on membranes of CHO cells stably expressing human H4 receptor
Catalogue of Ki or IC50 activity class readings, one per entry.

Some solved entries appear below for comparison.
                                   molecule               test_readout    result
0  CN1CCC(OC(c2nc3ccccc3[nH]2)c2cc(F)ccc2F)CC1 (centres unmarked) [Example 424]  Ki or IC50 activity class  < 300 nM
1  CN1CCC(OC(c2nc3ccccc3[nH]2)c2cc(Oc3ccccc3)ccc2O)CC1 (centres unmarked) [Example 609]  Ki or IC50 activity class  < 300 nM
2  CN1CCC(OC(c2cccc(OCCCCN3CCCCC3)c2)c2nc3ccccc3[nH]2)CC1 (centres unmarked) [Example 333]  Ki or IC50 activity class  < 300 nM
3  CN1CCC(OC(c2cccc(CCCCCN)c2)c2nc3ccccc3[nH]2)CC1 (centres unmarked) [Example 312]  Ki or IC50 activity class  < 300 nM

Here is the next item to consider.
query: What value of measured Ki or IC50 activity class is listed for CN1CCC(OC(c2cccc(C3=CCNCC3)c2)c2nc3ccccc3[nH]2)CC1 (centres unmarked) [Example 338] ?
result: < 300 nM

* * *

Where a name gives a salt, the structure may show the parent alone.
test-readout: melting point (°C)

                                   compound  unit_symbol  result_number
0  CN1CCC(NC(c2cccc(-c3ccco3)c2)c2nc3ccccc3[nH]2)CC1 (stereo not shown)           °C            108

I. CCCOc1cccc(C(OC2CCN(C)CC2)c2nc3ccccc3s2)c1 (stereo not shown) (as salt: hydrochloride)
II. CN1CCC(OC(c2cccc(OCc3ccccn3)c2)c2nc3ccccc3s2)CC1 (stereo not shown) (as salt: oxalate)
query: Compare I and II by numeric melting point and name the larger one. Indicate your choice by writing its label.
result: II

A. CN1CCC(OC(c2cccc(OC3CCNCC3)c2)c2nc3ccccc3s2)CC1 (stereo not shown) (as salt: oxalate)
B. CN1CCC(OC(c2cccc(SCCCCN)c2)c2nc3cc(F)c(F)c(F)c3[nH]2)CC1 (stereo not shown) (as salt: oxalate)
query: Compare A and B by numeric melting point and name the larger one. Indicate your choice by writing its label.
result: B
(B: 110 °C, A: 76 °C)

* * *

Where a name gives a salt, the structure may show the parent alone.
test-readout: melting point (°C)

Some solved entries appear below for comparison.
>>> df
                                   molecule   test_readout  unit_symbol  result_number
0  CN1CCC(OC(c2nc3ccccc3[nH]2)c2cccc(F)c2O)CC1 (centres unmarked) [Example 581]  melting point           °C            145
1  CN1CCC(NC(c2cccc(OCc3ccc(F)cc3)c2)c2nc3ccccc3[nH]2)CC1 (centres unmarked) (as salt: oxalate) [Example 103]  melting point           °C            140
2  Cc1cccc(C(NC2CCN(C)CC2)c2nc3ccccc3s2)c1 (centres unmarked) (as salt: oxalate) [Example 21]  melting point           °C            127
3  CN1CCC(OC(c2nc3ccccc3[nH]2)c2ccc(OC(F)(F)F)cc2O)CC1 (centres unmarked) [Example 621]  melting point           °C            133
4  COc1cccc(C(NC2CCN(C)CC2)c2nc3ccccc3s2)c1 (centres unmarked) (as salt: oxalate) [Example 25]  melting point           °C            160
5  CN1CCC(NC(c2cccc(OCCCC(F)(F)F)c2)c2nc3ccccc3[nH]2)CC1 (centres unmarked) [Example 175]  melting point           °C             94

A. CN1CCC(OC(c2ccc3c(c2)OCCO3)c2nc3ccccc3s2)CC1 (centres unmarked) (as salt: hydrochloride) [Example 10]
B. CN1CCC(OC(c2cccc(C#CCCCNC(=N)N)c2)c2nc3ccccc3s2)CC1 (centres unmarked) (as salt: hydrochloride) [Example 340]
query: Hey, which is lower on measured melting point, A or B ? Indicate your choice by writing its label.
result: A

* * *

Target: human H4 receptor (Homo sapiens, UniProt Q9H3N8)
Construct: expressed in transfected cells
Assay: [3H]Histamine binding on membranes of CHO cells stably expressing human H4 receptor
test-readout: Ki or IC50 activity class

query: What value of measured Ki or IC50 activity class is listed for CN1CCC(OC(c2nc3cc(F)ccc3[nH]2)c2cc(OC(F)(F)F)ccc2F)CC1 (centres unmarked) ?
result: < 30 nM

* * *

Catalogue of Ki or IC50 activity class readings, one per entry.
Biological target: human H4 receptor (Homo sapiens, UniProt Q9H3N8)
Construct: expressed in transfected cells
Assay: [3H]Histamine binding on membranes of CHO cells stably expressing human H4 receptor

query: What value of measured Ki or IC50 activity class is listed for CN1CCC(NC(c2cccc(OCCC3=CCC4CC3C4(C)C)c2)c2nc3ccccc3[nH]2)CC1 (stereo not drawn) ?
result: < 30 nM

query: What value of measured Ki or IC50 activity class is listed for CN1CCC(OC(c2cccc(SCCCCN)c2)c2nc3ccccc3s2)CC1 (stereo not drawn) ?
result: < 30 nM

query: What value of measured Ki or IC50 activity class is listed for CN1CCC(OC(c2cccc(C#CCCCCNC(=N)N)c2)c2nc3ccccc3[nH]2)CC1 (stereo not drawn) ?
result: < 300 nM

query: What value of measured Ki or IC50 activity class is listed for CN1CCC(OC(c2cccc(C=CCCCO)c2)c2nc3ccccc3s2)CC1 (stereo not drawn) [Example 384] ?
result: < 300 nM

query: What value of measured Ki or IC50 activity class is listed for Cc1ccc(C(OC2CCN(C)CC2)c2nc3ccccc3[nH]2)cc1F (stereo not drawn) ?
result: < 300 nM

query: What value of measured Ki or IC50 activity class is listed for CN1CCC(OC(c2nc3ccccc3[nH]2)c2cc(Cl)ccc2O)CC1 (stereo not drawn) ?
result: < 30 nM

query: What value of measured Ki or IC50 activity class is listed for COc1ccc(F)c(C(OC2CCN(C)CC2)c2nc3ccccc3[nH]2)c1F (stereo not drawn) ?
result: < 300 nM

query: What value of measured Ki or IC50 activity class is listed for CN1CCC(OC(c2cccc(-c3ccc(OC(F)(F)F)cc3)c2)c2nc3ccccc3[nH]2)CC1 (stereo not drawn) ?
result: < 30 nM

query: What value of measured Ki or IC50 activity class is listed for CN1CCC(OC(c2cccc(SCCN)c2)c2nc3ccccc3s2)CC1 (stereo not drawn) ?
result: < 30 nM

query: What value of measured Ki or IC50 activity class is listed for CN1CCC(NC(c2cccc(OCC3CCCCC3)c2)c2nc3ccccc3s2)CC1 (stereo not drawn) ?
result: < 300 nM

query: What value of measured Ki or IC50 activity class is listed for CN1CCC(OC(c2cccc(C#CCN3C(=O)c4ccccc4C3=O)c2)c2nc3ccccc3[nH]2)CC1 (stereo not drawn) ?
result: < 300 nM

query: What value of measured Ki or IC50 activity class is listed for CN1CCC(OC(c2ccccc2)c2nc3cc(F)ccc3s2)CC1 (stereo not drawn) ?
result: < 300 nM

query: What value of measured Ki or IC50 activity class is listed for CN1CCC(COC(c2cccc(Br)c2)c2nc3ccccc3s2)C1 (stereo not drawn) [Example 465] ?
result: < 30 nM

query: What value of measured Ki or IC50 activity class is listed for Brc1cccc(C(OCC2CNC2)c2nc3ccccc3[nH]2)c1 (stereo not drawn) ?
result: < 1000 nM

query: What value of measured Ki or IC50 activity class is listed for Cc1cccc(C(OC2CCN(C)CC2)c2nc3ccccc3s2)c1 (stereo not drawn) ?
result: < 30 nM

query: What value of measured Ki or IC50 activity class is listed for CN1CCC(OC(c2cccc(-c3ccc(F)cc3)c2)c2nc3ccccc3[nH]2)CC1 (stereo not drawn) ?
result: < 300 nM

query: What value of measured Ki or IC50 activity class is listed for CN1CCC(OC(c2ccc(F)c(OC(F)(F)F)c2)c2nc3ccccc3[nH]2)CC1 (stereo not drawn) ?
result: < 1000 nM

query: What value of measured Ki or IC50 activity class is listed for CN1CCC(OC(c2cccc(CO)c2)c2nc3ccccc3s2)CC1 (stereo not drawn) ?
result: < 1000 nM
